Origin of values: patent US20080214583A1

Readings of melting point for the listed molecules

Cc1c(C)n(Cc2ccccc2)c2ncnc(NN=Cc3cccc([N+](=O)[O-])c3)c12    103 to 109.5 °C

Requested field: melting point. Item: Cc1c(C)n(Cc2ccccc2)c2ncnc(NN=C3C(=O)Nc4ccccc43)c12
292 to 293 °C

Can you handle COc1cc(C(=NN)c2ncnc3c2c(C)c(C)n3-c2cccc(Cl)c2)ccc1O next?
146 to 187 °C

Also Cc1c(C)n(-c2cccc(Cl)c2)c2ncnc(NN=C3C(=O)Nc4ccc(F)cc43)c12 ?
271 to 279 °C

Next record, please: COc1ccccc1C=NNc1ncnc2c1c(C)c(C)n2Cc1ccccc1
214 to 216 °C
